Values were extracted from PubChem BioAssay (NCATS).

assay_info: High-throughput drug toxicity screening in the BPDCN cell line Gen2.2 (AID 1224824);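 also: cells exposed to compounds for 48 h before reading; 100% = DMSO and 0% = bortezomib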
assay_context: Gen2.2 BPDCN cells; at 45.8 µM (top of the series) unless noted
Give cell viability, % of control (lower = more cytotoxic) for every item shown.
Give bare numbers, in %.

compound | reported_measurement
O=C(Nc1cc(Cl)cc2c1[nH]c1cnccc12)c1cccnc1 | 67.6
O=C1NC(=O)C(=Cc2ccc(-c3ccc(F)cc3)o2)S1 | 57.7

Incoming: Query (compound): C[C@]12CC[C@@H]3c4ccc(O)cc4C[C@@H](CCCCCCCCCS(=O)CCCC(F)(F)C(F)(F)F)[C@H]3[C@H]1CC[C@H]2O (stereo partly drawn) ; field requested: cell viability, % of control (lower = more cytotoxic)
Outgoing: 105

====

assay_info: qHTS drug screen for cell cycle checkpoint inhibitors in PARPi-resistant BRCA-mutant ovarian cancer cell lines. (AID 1963452)
assay_context: PEO1/OlaR viability, CellTiter-Glo luminescence, 96 h; measured here: PEO1 parental Z-AUC; stronger effect = lower value
property_name: Z-AUC

compound | reported_measurement
COc1cc(N2CCC(N3CCN(C)CC3)CC2)ccc1Nc1ncnc(Nc2ccccc2S(=O)(=O)C(C)C)n1 | 0.069

Give Z-AUC for each of the items listed below.
1. CCNc1cc(NC2CCC(O)CC2)nc(Nc2ccc3c(ccn3Cc3ccccc3)c2)n1 (stereo not drawn)
2. COc1cc2c(cc1OC)CN(CCc1ccc(NC(=O)c3cc(OC)c(OC)cc3NC(=O)c3cnc4ccccc4c3)cc1)CC2

Outgoing:
[0.235, 1.41]

====

assay_info: Quantitative High-Throughput drug screen in 47 multiple myeloma cell lines against the NCATS MIPE library collection: JIM1_ECACC cell viability assay (AID 1918964)
assay_context: JIM1 myeloma viability, CellTiter-Glo ATP luminescence, 48 h; series mostly up to 45.8 µM
Records with an inconclusive call do not appear. Active and inactive are the calls of the source. Calls follow the shape of the dose curve; as a rule, active = well fitted cell-killing curve with a large enough effect; inconclusive = small, poorly fitted or top-dose-only effect, or effect the other way; inactive = no such curve, though single readings can be large or run the other way.
Parameter call: string, one of active, inactive

Sample answers from the record:
compound | classification
O=C1NC(=O)C(=Cc2ccc3c(c2)OC(F)(F)O3)S1 | inactive
CC(C)n1cnc2c(NCCCCCCNC(=O)OC(C)(C)C)nc(NCCO)nc21 | inactive

Next:
Incoming: For C=C1C(=O)[C@@]23C(CC[C@@H]1[C@H]2O)[C@@]12CO[C@]3(O)[C@@H](O)[C@@H]1C(C)(C)CC[C@@H]2O (stereo partly drawn) , which call appears in the assay record?
Outgoing: active

====

Give max response for every item shown.
System: HEK293
assay_info: Cytotoxic Profiling of Annotated Libraries Using Quantitative High-Throughput Screening (AID 1296008); also: % is scaled to controls: 0 for no effect and ±100 for the full control effect; nearly all actives have a fitted effect of over 60% in size
assay_context: Five cell lines viability, CellTiter-Glo ATP luminescence, 48-72 h; stronger effect = lower value
Method: Cell-based phenotypic screening is a commonly used approach to discover biological pathways, novel drug targets, chemical probes and high-quality hit-to-lead molecules. […] A pintool (Kalypsys) was used to transfer 23 nL of compound solution to the 1536-well assay plates. […] Plates were left at room temperature for 10 min before imaging the ATP-coupled luminescence using a ViewLux microplate imager (PerkinElmer, Waltham, MA).
Records with an inconclusive call do not appear.
Give bare numbers, in %.

compound | output_unit | max response
OC[C@H]1O[C@@H](Oc2cc(O)cc(C=Cc3ccc(O)cc3)c2)[C@H](O)[C@@H](O)[C@H]1O | % | -2.18

Give max response for each of the items listed below.
1. COC(=O)C1=CO[C@@H](O)[C@@H]2C(CO)=CC[C@@H]12
2. CC#CCn1c(N2CCC[C@@H](N)C2)nc2c1c(=O)n(Cc1nc(C)c3ccccc3n1)c(=O)n2C
3. O=C(NOCC(O)CO)c1cc(Br)c(F)c(F)c1Nc1ccc(I)cc1F (configuration not stated)
4. COc1ccc(-c2cc(=O)c3c(O)cc(O)cc3o2)cc1O
5. Cc1ccccc1C(C(=O)NC1CCCCC1)N(C(=O)Cn1ccnc1C)c1cccc(F)c1 (configuration not stated)
6. O=C1Nc2ccc(Cl)cc2C(C#CC2CC2)(C(F)(F)F)O1 (configuration not stated)
7. O=C(O)c1ccccc1C(=O)Nc1ccc(-c2ccccc2)cc1
8. CC(C)NCC(O)COc1cccc2[nH]ccc12 (configuration not stated)

Outgoing:
1. 4.92
2. -21.1
3. 0.434
4. -3.68
5. -0.939
6. -29.6
7. -10.6
8. -23

Give max response for each of the items listed below.
1. CC1(C)CCC[C@@]2(C)[C@@H]1CC[C@@]1(C)OC(=O)C[C@H]21
2. CCOC(CN1C(=O)[C@](CC(=O)Nc2ccc(C)cc2)(NC(=O)Nc2ccc(C)cc2)c2ccccc21)OCC
3. O=C(CCc1ccc(O)cc1)c1c(O)cc(O)cc1O[C@@H]1O[C@H](CO)[C@H](O)[C@H](O)[C@H]1O
4. COc1ccc2cccc(CCNC(C)=O)c2c1
5. CCCNC(=O)NS(=O)(=O)c1ccc(Cl)cc1

Outgoing:
-1.67
-3.95
1.98
4.38
-0.916

Give max response for each of the items listed below.
1. CO[C@H]1C[C@@H]2CC[C@@H](C)[C@@](O)(O2)C(=O)C(=O)N2CCCC[C@@H]2C(=O)O[C@H]([C@@H](C)C[C@@H]2CC[C@H](O)[C@H](OC)C2)CC(=O)[C@H](C)C=C(C)[C@@H](O)[C@@H](OC)C(=O)[C@H](C)C[C@H](C)C=CC=CC=C1C
2. Nc1ncnc2c1nc(Cl)n2[C@@H]1O[C@H](CO)[C@@H](O)[C@@H]1O
3. O=C(Nc1cc(Cl)cc2c1[nH]c1cnccc12)c1cccnc1

Outgoing:
1. -97.2
2. 0.527
3. 3.08

====

assay_info: qHTS profiling of the MIPE4 collection as inhibitors of Plasmodium falciparum (3D7) proliferation (AID 743344);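 also: scaled between DMSO vehicle wells and 0.29 µM artemisinin as full inhibition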
assay_context: P. falciparum 3D7 in erythrocytes, SYBR Green DNA fluorescence, 72 h; at 28.5 µM (top of the series) unless noted
Protocol: Plasmodium falciparum is a virulent malarial parasite that kills 1-2 million people worldwide each year. […] Because mature erythrocytes lack DNA, only Plasmodium-derived DNA is detected. The SYBR Green viability assay was adapted from a method described previously (Plouffe et al., 2008). […] The following morning, fluorescence intensity at 485(14) nm excitation and 535(25) nm emission wavelengths was measured on an EnVision (Perkin Elmer) plate reader. […]
property_name: parasite growth, % of DMSO control (%)
Answers are plain numbers, in %.

Example results:
item_smiles | parasite growth, % of DMSO control / %
CC=C(C)C(=O)O[C@H]1C(C)=C[C@]23C(=O)[C@@H](C=C(CO)[C@@H](O)[C@]12O)[C@H]1[C@@H](C[C@H]3C)C1(C)C | 18.7
O=c1cc(-c2ccccc2)oc2cc(O)cc(O)c12 | 48.1

Now take the following molecule into account.
Incoming: Query (molecule): O=C1NC(=O)C(=Cc2ccc3c(c2)OC(F)(F)O3)S1 ; field requested: parasite growth, % of DMSO control
Outgoing: 86.7

====

assay_info: qHTS drug screen for cell cycle checkpoint inhibitors in PARPi-resistant BRCA-mutant ovarian cancer cell lines. (AID 1963452)
assay_context: PEO1/OlaR viability, CellTiter-Glo luminescence, 96 h; measured here: PEO1 parental Z-AUC; stronger effect = lower value
property_name: Z-AUC
Give bare numbers.

compound | reported_measurement
Cc1nc(N)sc1-c1ccnc(Nc2ccc(N3CCOCC3)cc2)n1 | -0.029
CS(=O)c1ccc(-c2nc(-c3ccc(F)cc3)c(-c3ccncc3)[nH]2)cc1 (stereo not given) | 0.495
O=C(NOCC(O)CO)c1cc(Br)c(F)c(F)c1Nc1ccc(I)cc1F (stereo not given) | 0.513
O=C(NCc1ccncc1)C12C[C@H]3C[C@@H](C1)CC(c1ccc(Cl)cc1)(C3)C2 | 0.866
CC1(C)CCC(CN2CCN(c3ccc(C(=O)NS(=O)(=O)c4ccc(NCC5CCOCC5)c([N+](=O)[O-])c4)c(Oc4cnc5[nH]ccc5c4)c3)CC2)=C(c2ccc(Cl)cc2)C1 | 0.742

Give Z-AUC for each of the items listed below.
1. COc1ccc(-c2cc(=O)c3c(O)cc(O)cc3o2)cc1O
2. CC#CCn1c(N2CCC[C@@H](N)C2)nc2c1c(=O)n(Cc1nc(C)c3ccccc3n1)c(=O)n2C
3. COc1ccc(Cc2ccc(NC(N)=O)cc2)cc1-c1cccc(Cl)c1

Outgoing:
[0.498, 0.131, -0.098]

Give Z-AUC for each of the items listed below.
1. CO[C@H]1C(=O)[C@]2(C)[C@@H](OC)C[C@H]3OC[C@@]3(OC(C)=O)[C@H]2[C@H](OC(=O)c2ccccc2)[C@]2(O)C[C@H](OC(=O)[C@H](O)[C@@H](NC(=O)OC(C)(C)C)c3ccccc3)C(C)=C1C2(C)C
2. CC(=O)Oc1cc2c(s1)CCN(C(C(=O)C1CC1)c1ccccc1F)C2 (stereo not given)
3. CN(C[C@@H]1COCCO1)S(=O)(=O)Nc1ccc2ccc3ncc(-c4cnn(C)c4)cc3c(=O)c2c1
4. COc1cc(NC(=O)c2ccc(-c3ccc(Cl)cc3)o2)cc(OC)c1
5. Cc1ccc(C(C)(O)c2nc3ccccc3s2)c(C)c1 (stereo not given)
6. NC(CO)(CO)CCc1ccc(Sc2cccc(OCc3ccccc3)c2)cc1Cl
7. O=C(O)c1cc(O)c2c(c1)C(=O)c1cccc(O)c1C2=O

Outgoing:
1: -2.35; 2: 0.469; 3: -0.332; 4: -0.389; 5: 0.537; 6: -0.197; 7: -0.852
